Data origin, for the record: PubChem BioAssay (NCI)

TGI for assorted compounds
# Test system: KM12 colon
# assay.info: NCI tumour cell line growth inhibition, 48 h

| compound | TGI |
| --- | --- |
| COc1cc(/C=C2/CCCc3ccccc3C2=O)cc(OC)c1OC | > 50.1 µM |
| O=S(=O)(Nc1nc2ccccc2nc1Nc1cccc2ccccc12)c1ccccc1 | > 100 µM |
| Cc1ccc2oc(=O)cc(CC(=O)O)c2c1 | > 100 µM |
| OCC(O)C(O)C(O)c1nn[nH]n1 (stereo not given) | > 100 µM |
| CN(C)c1ccc(/C=N/NC(=O)CSc2nc3sc4c(c3c(=O)n2-c2ccccc2)CCCCC4)cc1 | > 100 µM |

###

TGI for assorted compounds
# System: ACHN renal
# assay.info: NCI tumour cell line growth inhibition, 48 h
reported.property: TGI

| compound | reported.property | reading |
| --- | --- | --- |
| Cc1cc(N2CCCCC2)nc(NCc2cc(Nc3ccnc4cc(Cl)ccc34)ccc2F)n1 | TGI | 3.25 µM |
| O=C1/C(=N/N=C(c2ccccc2)c2ccccc2)c2ccccc2-c2ccccc21 | TGI | > 100 µM |
| O=S(Nc1ccccc1)c1ccccc1Oc1ccccc1 (centres undefined) | TGI | > 100 µM |
| Clc1cc(Cl)cc(C2SCc3nc4ccccc4n32)c1 (centres undefined) | TGI | 69 µM |
| NNC(=O)C(O)C(O)C(O)CO (centres undefined) | TGI | > 100 µM |
| Cc1ccc(N/C(=C(/C(Cl)=C(Cl)Cl)[N+](=O)[O-])n2nnc3ccccc32)cc1 | TGI | 44.9 µM |
| O=C(O)c1[nH]c(=O)[nH]c(=O)c1CN1CCCCC1 | TGI | > 100 µM |
| CC(=O)N(C(=O)CC(=O)NNCc1ccccc1Cl)c1ccc(Cl)cc1 | TGI | > 10 µM |
| CC(C)(c1ccccc1)c1ccc(Oc2ccc3c(c2)-c2nc-3nc3[nH]c(nc4nc(nc5[nH]c(n2)c2ccc(Oc6ccc(C(C)(C)c7ccccc7)cc6)cc52)-c2cc(Oc5ccc(C(C)(C)c6ccccc6)cc5)ccc2-4)c2ccc(Oc4ccc(C(C)(C)c5ccccc5)cc4)cc32)cc1 | TGI | > 100 µM |
| CCOC(=O)c1ccc(OCc2nc3cc(C(F)(F)F)ccc3nc2-c2ccccc2)cc1 | TGI | > 100 µM |
| CN(C)CCn1c2c(c3ccccc31)CCc1ccccc1-2 | TGI | 29.9 µM |
| COc1c(C(=O)/C(=N/Nc2cccc(Cl)c2)C(C)=O)c(O)c(OC)c2occc12 | TGI | > 100 µM |
| Nc1nc(Cl)cc(NCC2(CO)CC(CCCc3ccccc3)C2)n1 (centres undefined) | TGI | > 100 µM |
| SCc1ccc(-c2ccc(CS)cc2)cc1 | TGI | 43.1 µM |

###

# System: RXF 393 renal
# assay.info: NCI tumour cell line growth inhibition, 48 h
reported.property: TGI

| compound | reading |
| --- | --- |
| C[C@@]1([C@H](OC(=O)c2cccc3ccccc23)C(N)=O)CO1 | > 21.3 µM |
| COc1ccc(-c2cnc(SCC(=O)c3c(C)n(C)n(-c4ccccc4)c3=O)n2-c2ccc(OC)cc2)cc1 | > 50 µM |
| NNC(=O)C(O)C(O)C(O)CO (stereo not given) | > 100 µM |
| O=C(CC(O)c1cccnc1)CC(O)c1cccnc1 (stereo not given) | 32.1 µM |
| Cn1c(=O)c2c(nc(N3CCOCC3)n2CCCNCC(O)c2ccc(O)c(O)c2)n(C)c1=O (stereo not given) | > 100 µM |
| O=C(O)COc1cc(-c2ccccc2F)nc2cc3c(cc12)OCO3 | > 100 µM |
| O=P1(N(CCCl)CCCl)Oc2c(Cl)cc(Cl)c(Cl)c2Cc2c(Cl)c(Cl)cc(Cl)c2O1 | > 100 µM |
| CC1(C)CCCC2(C)C3=C(CCC12)C(=O)OC3 (stereo not given) | > 100 µM |
| CC(=O)N(C(=O)CC(=O)NNCc1ccccc1Cl)c1ccc(Cl)cc1 | > 10 µM |
| O=c1oc2cc(O)ccc2c(O)c1C(c1ccc2ccccc2c1)c1c(O)c2ccc(O)cc2oc1=O | > 100 µM |
| O=[N+]([O-])c1ccc(CSc2c3ccccc3nc3ccccc23)cc1 | 18.5 µM |
| O=C1C2=C(C(=O)c3c(O)ccc(O)c31)N(c1cccnc1)Cc1ccccc1O2 | 0.367 µM |
| CCOc1cccc2sc(N)nc12 | > 100 µM |
| C=C(c1ccc(OC)c(/C=C/C(=O)c2cc(OC)c(OC)c(OC)c2)c1)c1cc(OC)c(OC)c(OC)c1 | 2.62 µM |
| CCCCCCN(CCCCCC)C1=CC(=O)C(=O)c2ccccc21 | 40.5 µM |
